Assay: Solubility in water of possible ingredients
Assay type: physicochemical
Conditions: given as percent
Some molecules, each annotated with its measured Solubility in H2O.
Give a bare numeral; the unit % is implied.

Would you please look over these solved cases?
Any idea what Solubility in H2O was measured for CCCCOCCOCCOC(C)=O [[2-(2-butoxyethoxy)-ethyl]-acetate] ?
6.5

Try COC(=O)CCC(=O)OC [dimethyl succinate] next.
7.5

Follow-up entry: CCCCOCCOCCO [diethylene glycol monobutyl ether]
10

Request: CC1COC(=O)O1 (centres unmarked) [propylene carbonate]
24

--- query ---
Please give the measured Solubility in H2O for this molecule: CCCCOCCOCCOCCCC [diethylene glycol dibutyl ether]
0.3

Value source: patent US20100273696A1
